Origin of measurements: paper PMC13161223

- target-desc: T1, Biotin-conjugated ^MBPPBD (immobilised ligand of BLI) (human, UniProt P53350 345-603, biotin (Gly-Gly-Gly-Gly-Biotin conjugated to the C-terminal PLPETG peptide by sortase A))
- T1 construct: PLK1, human, residues 345-603 (Polo-box domain construct); As m1 with a C-terminal PLPETG peptide used for biotin labelling; held on streptavidin sensors; also called immobilized PBD; source: E. coli BL21 (DE3), purified (HisTALON, SEC), biotin-labelled with sortase A; not shown: MBP, N-terminal, kept; PLPETG peptide conjugated with Gly-Gly-Gly-Gly-Biotin, C-terminal, kept
- T1 sequence (P53350 345-603): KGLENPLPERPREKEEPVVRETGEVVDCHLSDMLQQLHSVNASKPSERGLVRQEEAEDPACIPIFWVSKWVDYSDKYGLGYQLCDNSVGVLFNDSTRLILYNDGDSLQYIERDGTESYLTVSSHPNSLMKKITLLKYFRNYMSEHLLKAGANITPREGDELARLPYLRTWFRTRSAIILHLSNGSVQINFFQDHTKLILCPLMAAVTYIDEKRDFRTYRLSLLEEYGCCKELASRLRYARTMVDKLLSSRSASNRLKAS
- measurement-notes: BLI; biotin-conjugated ^MBPPBD immobilised on streptavidin sensors, CENP-U variants as analyte; 25 °C, 20 mM HEPES pH 7.5, 2.5% glycerol, 300 mM NaCl, 0.1 mM TCEP, 0.3 g/L BSA, 0.05% Tween20; KD from koff/kon of the global fit
- condition-notes: both partners purified
Non-standard residues stand in square brackets, D forms with d. No end group written: not given here. pT = C[C@@H](OP(=O)(O)O)[C@H](N)C(=O)O; MBP = maltose-binding protein
Entries and their kon values follow.
Give the value, in units of M⁻¹ s⁻¹, as a plain number.

Worked examples, 2 binders total:
binder	kon / M⁻¹ s⁻¹
LGENEKDEETYETADPPLHS[pT]AIYAD (domain or fragment, human, UniProt Q71F23 58-83, looked up, also: N-terminal MBP fusion protein, CENP-U (PBIP1), human, residues 58-83 (Motif 1); source: E. coli BL21 (DE3), purified; not shown: MBP, N-terminal, kept) [^MBPCENP-U^58-83/F71A/pT78]	87000
LGENEKDEETAETADPPLHS[pT]AIYAD (domain or fragment, human, UniProt Q71F23 58-83, looked up, also: N-terminal MBP fusion protein, CENP-U (PBIP1), human, residues 58-83 (Motif 1); source: E. coli BL21 (DE3), purified; not shown: MBP, N-terminal, kept) [^MBPCENP-U^58-83/Y68A/F71A/pT78]	47000

Value of measured kon for the entry LGENEKDEETYETFDPPLHS[pT]AIYAD (domain or fragment, human, UniProt Q71F23 58-83, looked up, also: N-terminal MBP fusion protein, CENP-U (PBIP1), human, residues 58-83 (Motif 1); also called PLK1-phosphorylated ^MBPCENP-U^58-83; phosphorylated Motif 1; source: E. coli BL21 (DE3), purified; not shown: MBP, N-terminal, kept) [^MBPCENP-U^58-83/pT78] : 140000

Value of measured kon for the entry ^MBPCENP-U^58-114/pT78/F87A/T98V (domain or fragment, human, UniProt Q71F23 58-114, looked up, also: N-terminal MBP fusion protein, source: E. coli BL21 (DE3), purified; phosphorylated in vitro with only PLK1; not shown: MBP, N-terminal, kept) LGENEKDEETYETFDPPLHS[pT]AIYADEEEASKHCGLSLSSVPPGKEAKRSSDTSGNE : 140000

Value of measured kon for the entry {6xHis-MBP-TEV}-LGENEKDEETYETFDPPLHSTAIYAD (domain or fragment, human, UniProt Q71F23 58-83, looked up, CENP-U (PBIP1), human, residues 58-83 (Motif 1); also called Motif 1; unphosphorylated Motif 1; source: E. coli BL21 (DE3), purified (HisTALON, Resource Q, SEC); not shown: MBP, N-terminal, kept) [^MBPCENP-U^58-83 (6xHis-MBP-TEV-CENP-U^58-83), unphosphorylated] : 28
